System: THLE-2 cells
Assay: cells
Type: cell-based
Details: Homo sapiens, THLE-2; 72 h of incubation; ranges for ANF and 1 and for RZF and 2 stated jointly; read-out: IC50 value (THLE-2 viability)
*1 amine or outer side, *2 acyl side, *3 side chain or, on linkers, in order; H or OH if unused. Where a SMILES comes first, the peptide text is derived from it. Bridges are numbered along the chain shown (N, C = ends). [ ]: non-standard residue; d: D form. The star is where a group is joined. Orn(4R-OH,5R-OCH2CH2NMe3+) = C[N+](C)(C)CCO[C@@H](N[*:3])[C@H](O)C[C@H](N[*:1])C(=O)[*:2]; pTerphenylCO(4''-OnC5H11) = CCCCCOc1ccc(-c2ccc(-c3ccc(C(=O)*)cc3)cc2)cc1; hTyr(3S-OH,4S-OH) = N[C@H](C(=O)O)[C@H](O)[C@@H](O)c1ccc(O)cc1; Pro(3S-OH,4S-Me) = C[C@H]1CN[C@H](C(=O)O)[C@H]1O; Hyp = O=C(O)[C@@H]1C[C@@H](O)CN1
attributeMeasured: IC50

1. CCCCCOc1ccc(-c2ccc(-c3ccc(C(=O)N[C@H]4C[C@@H](O)[C@@H](OCC[N+](C)(C)C)NC(=O)[C@@H]5[C@@H](O)[C@@H](C)CN5C(=O)[C@H]([C@@H](C)O)NC(=O)[C@H]([C@H](O)[C@@H](O)c5ccc(O)cc5)NC(=O)[C@@H]5C[C@@H](O)CN5C(=O)[C@H]([C@@H](C)O)NC4=O)cc3)cc2)cc1 [RZF, rezafungin] ({pTerphenylCO(4''-OnC5H11)}-[Orn(4R-OH,5R-OCH2CH2NMe3+)]T[Hyp][hTyr(3S-OH,4S-OH)]T[Pro(3S-OH,4S-Me)]; lactam 1-C) = 36 to 77 µM

---

Tested on: C. albicans
Experiment: Minimum inhibitory concentration broth double-dilution assay
Assay type: cell-based, Candida albicans
Conditions: #1 C. albicans Sc5314; 24 h, 30 °C
*1 amine or outer side, *2 acyl side, *3 side chain or, on linkers, in order; H or OH if unused. Where a SMILES comes first, the peptide text is derived from it. Bridges are numbered along the chain shown (N, C = ends). [ ]: non-standard residue; d: D form. The star is where a group is joined. Orn(4R-OH,5R-OCH2CH2NMe3+) = C[N+](C)(C)CCO[C@@H](N[*:3])[C@H](O)C[C@H](N[*:1])C(=O)[*:2]; hTyr(3S-OH,4S-OH,3'-OSO3H) = N[C@H](C(=O)O)[C@H](O)[C@@H](O)c1ccc(O)c(OS(=O)(=O)O)c1; pTerphenylCO(4''-OnC5H11) = CCCCCOc1ccc(-c2ccc(-c3ccc(C(=O)*)cc3)cc2)cc1; Orn(4R-OH,5R-OH) = O=C([C@H](C[C@@H](O)[C@@H](O)N[*:3])N[*:1])[*:2]; hTyr(3S-OH,4S-OH) = N[C@H](C(=O)O)[C@H](O)[C@@H](O)c1ccc(O)cc1; Pro(3S-OH,4S-Me) = C[C@H]1CN[C@H](C(=O)O)[C@H]1O; X1 = CCCCCOc1ccc(-c2cc(-c3ccc(C(=O)*)cc3)no2)cc1; hTyr(3R-OH) = N[C@H](C(=O)O)[C@H](O)Cc1ccc(O)cc1; Gln(3R-OH) = NC(=O)C[C@@H](O)[C@H](N)C(=O)O; Hyp = O=C(O)[C@@H]1C[C@@H](O)CN1
// reported MIC for each item listed
attributeMeasured: MIC (µg/mL)

1) CC[C@H](C)C[C@H](C)CCCCCCCCC(=O)N[C@H]1C[C@@H](O)[C@@H](NCCN)NC(=O)[C@@H]2[C@@H](O)CCN2C(=O)[C@H]([C@H](O)CCN)NC(=O)[C@H]([C@H](O)[C@@H](O)c2ccc(O)cc2)NC(=O)[C@@H]2C[C@@H](O)CN2C(=O)[C@H]([C@@H](C)O)NC1=O = 0.015
2) CCCCCOc1ccc(-c2ccc(-c3ccc(C(=O)N[C@H]4C[C@@H](O)[C@@H](O)NC(=O)[C@@H]5[C@@H](O)[C@@H](C)CN5C(=O)[C@H]([C@@H](C)O)NC(=O)[C@H]([C@H](O)Cc5ccc(O)cc5)NC(=O)[C@@H]5C[C@@H](O)CN5C(=O)[C@H]([C@@H](C)O)NC4=O)cc3)cc2)cc1 [Compound 1, dehydroxy-ANF] ({pTerphenylCO(4''-OnC5H11)}-[Orn(4R-OH,5R-OH)]T[Hyp][hTyr(3R-OH)]T[Pro(3S-OH,4S-Me)]; lactam 1-C) = 0.008
3) CCCCCOc1ccc(-c2cc(-c3ccc(C(=O)N[C@H]4C[C@@H](O)[C@@H](O)NC(=O)[C@@H]5[C@@H](O)[C@@H](C)CN5C(=O)[C@H]([C@H](O)CC(N)=O)NC(=O)[C@H]([C@H](O)[C@@H](O)c5ccc(O)c(OS(=O)(=O)O)c5)NC(=O)[C@@H]5C[C@@H](O)CN5C(=O)[C@H]([C@@H](C)O)NC4=O)cc3)no2)cc1 [MCF, micafungin] (X1-[Orn(4R-OH,5R-OH)]T[Hyp][hTyr(3S-OH,4S-OH,3'-OSO3H)][Gln(3R-OH)][Pro(3S-OH,4S-Me)]; lactam 1-C) = 0.031
4) CCCCCOc1ccc(-c2ccc(-c3ccc(C(=O)N[C@H]4C[C@@H](O)[C@@H](OCC[N+](C)(C)C)NC(=O)[C@@H]5[C@@H](O)[C@@H](C)CN5C(=O)[C@H]([C@@H](C)O)NC(=O)[C@H]([C@H](O)[C@@H](O)c5ccc(O)cc5)NC(=O)[C@@H]5C[C@@H](O)CN5C(=O)[C@H]([C@@H](C)O)NC4=O)cc3)cc2)cc1 [RZF, rezafungin] ({pTerphenylCO(4''-OnC5H11)}-[Orn(4R-OH,5R-OCH2CH2NMe3+)]T[Hyp][hTyr(3S-OH,4S-OH)]T[Pro(3S-OH,4S-Me)]; lactam 1-C) = 0.015

---

// reported IC50 for each item listed
Test system: THLE-2 cells
Assay: cells
Format: cell-based
Conditions: Homo sapiens, THLE-2; 72 h of incubation; ranges for ANF and 1 and for RZF and 2 stated jointly; read-out: IC50 value (THLE-2 viability)
*1 amine or outer side, *2 acyl side, *3 side chain or, on linkers, in order; H or OH if unused. Where a SMILES comes first, the peptide text is derived from it. Bridges are numbered along the chain shown (N, C = ends). [ ]: non-standard residue; d: D form. The star is where a group is joined. Orn(4R-OH,5R-OCH2CH2NMe3+) = C[N+](C)(C)CCO[C@@H](N[*:3])[C@H](O)C[C@H](N[*:1])C(=O)[*:2]; pTerphenylCO(4''-OnC5H11) = CCCCCOc1ccc(-c2ccc(-c3ccc(C(=O)*)cc3)cc2)cc1; Orn(4R-OH,5R-OH) = O=C([C@H](C[C@@H](O)[C@@H](O)N[*:3])N[*:1])[*:2]; hTyr(3S-OH,4S-OH) = N[C@H](C(=O)O)[C@H](O)[C@@H](O)c1ccc(O)cc1; Pro(3S-OH,4S-Me) = C[C@H]1CN[C@H](C(=O)O)[C@H]1O; hTyr(3R-OH) = N[C@H](C(=O)O)[C@H](O)Cc1ccc(O)cc1; Hyp = O=C(O)[C@@H]1C[C@@H](O)CN1
attributeMeasured: IC50

1) CCCCCOc1ccc(-c2ccc(-c3ccc(C(=O)N[C@H]4C[C@@H](O)[C@@H](OCC[N+](C)(C)C)NC(=O)[C@@H]5[C@@H](O)[C@@H](C)CN5C(=O)[C@H]([C@@H](C)O)NC(=O)[C@H]([C@H](O)Cc5ccc(O)cc5)NC(=O)[C@@H]5C[C@@H](O)CN5C(=O)[C@H]([C@@H](C)O)NC4=O)cc3)cc2)cc1 [Compound 2, dehydroxy-RZF] ({pTerphenylCO(4''-OnC5H11)}-[Orn(4R-OH,5R-OCH2CH2NMe3+)]T[Hyp][hTyr(3R-OH)]T[Pro(3S-OH,4S-Me)]; lactam 1-C) = 36 to 77 µM
2) CCCCCOc1ccc(-c2ccc(-c3ccc(C(=O)N[C@H]4C[C@@H](O)[C@@H](O)NC(=O)[C@@H]5[C@@H](O)[C@@H](C)CN5C(=O)[C@H]([C@@H](C)O)NC(=O)[C@H]([C@H](O)Cc5ccc(O)cc5)NC(=O)[C@@H]5C[C@@H](O)CN5C(=O)[C@H]([C@@H](C)O)NC4=O)cc3)cc2)cc1 [Compound 1, dehydroxy-ANF] ({pTerphenylCO(4''-OnC5H11)}-[Orn(4R-OH,5R-OH)]T[Hyp][hTyr(3R-OH)]T[Pro(3S-OH,4S-Me)]; lactam 1-C) = 36 to 41 µM
3) CCCCCOc1ccc(-c2ccc(-c3ccc(C(=O)N[C@H]4C[C@@H](O)[C@@H](O)NC(=O)[C@@H]5[C@@H](O)[C@@H](C)CN5C(=O)[C@H]([C@@H](C)O)NC(=O)[C@H]([C@H](O)[C@@H](O)c5ccc(O)cc5)NC(=O)[C@@H]5C[C@@H](O)CN5C(=O)[C@H]([C@@H](C)O)NC4=O)cc3)cc2)cc1 [ANF, anidulafungin] ({pTerphenylCO(4''-OnC5H11)}-[Orn(4R-OH,5R-OH)]T[Hyp][hTyr(3S-OH,4S-OH)]T[Pro(3S-OH,4S-Me)]; lactam 1-C) = 36 to 41 µM
